Recorded values, source patent US10064926B2.

Biological target: HLA-A*02 (Homo sapiens, UniProt P04439, D140Y/D185E/D98H/E176V/E277Q/G131W/G231S/I119V/I121R/I166T/I218V/N151K/N90K/P208A/P217A/Q86G/Q94H/R138H/R169H)
Test: UV-ligand exchange / peptide binding to MHC class I (beta2m ELISA)
Conditions: Table 10B; peptide exchange yield; HLA-A*02 peptides
measurementType: Peptide exchange (MHC class I binding score)

# query: Peptide exchange (MHC class I binding score) of entry 275 (ALIEGAGILL; listed as Homo sapiens) [compound 275]
“+++” (≥50 = +++)

# query: Peptide exchange (MHC class I binding score) of entry 4 (KLQDFSDQL; listed as Homo sapiens) [compound 4]
“++++” (≥75% = ++++)

# query: Peptide exchange (MHC class I binding score) of entry 135 (ALLGKIEKV; listed as Homo sapiens) [compound 135]
“+++” (≥50 = +++)

# query: Peptide exchange (MHC class I binding score) of entry 162 (RLMSALTQV; listed as Homo sapiens) [compound 162]
“++” (≥20% = ++)

# query: Peptide exchange (MHC class I binding score) of entry 163 (RLTESVLYL; listed as Homo sapiens) [compound 163]
“+++” (≥50 = +++)

Further cases:
# query: Peptide exchange (MHC class I binding score) of entry 54 (GLLDPNVKSIFV; listed as Homo sapiens) [compound 54]
“+++” (≥50 = +++)

# query: Peptide exchange (MHC class I binding score) of entry 140 (ALTSISAGV; listed as Homo sapiens) [compound 140]
“++++” (≥75% = ++++)

# query: Peptide exchange (MHC class I binding score) of entry 42 (ALLGGNVRMML; listed as Homo sapiens) [compound 42]
“+++” (≥50 = +++)

# query: Peptide exchange (MHC class I binding score) of entry 229 (KMFESFIESV; listed as Homo sapiens) [compound 229]
“+++” (≥50 = +++)

# query: Peptide exchange (MHC class I binding score) of entry 100 (SLVGDIGNVNM; listed as Homo sapiens) [compound 100]
“++” (≥20% = ++)

# query: Peptide exchange (MHC class I binding score) of entry 267 (ALNENINQV; listed as Homo sapiens) [compound 267]
“+++” (≥50 = +++)

* * *

Biological target: HLA-A*02 (Homo sapiens, UniProt P04439, D140Y/D185E/D98H/E176V/E277Q/G131W/G231S/I119V/I121R/I166T/I218V/N151K/N90K/P208A/P217A/Q86G/Q94H/R138H/R169H)
Assay: UV-ligand exchange / peptide binding to MHC class I (beta2m ELISA)
Conditions: Table 10B; peptide exchange yield; HLA-A*02 peptides
measurementType: Peptide exchange (MHC class I binding score)

Here's what some known entries look like.
# query: Peptide exchange (MHC class I binding score) of entry 283 (ILSGIGVSQV; listed as Homo sapiens) [compound 283]
“+++” (≥50 = +++)

# query: Peptide exchange (MHC class I binding score) of entry 20 (KLSNVLQQV; listed as Homo sapiens) [compound 20]
“++++” (≥75% = ++++)

# query: Peptide exchange (MHC class I binding score) of entry 231 (RLFNDPVAMV; listed as Homo sapiens) [compound 231]
“++++” (≥75% = ++++)

# query: Peptide exchange (MHC class I binding score) of entry 111 (TVMDIDTSGTFNV; listed as Homo sapiens) [compound 111]
“+++” (≥50 = +++)

# query: Peptide exchange (MHC class I binding score) of entry 271 (LLLDKLILL; listed as Homo sapiens) [compound 271]
“++++” (≥75% = ++++)

Further cases:
# query: Peptide exchange (MHC class I binding score) of entry 236 (ALADKELLPSV; listed as Homo sapiens) [compound 236]
“+++” (≥50 = +++)

# query: Peptide exchange (MHC class I binding score) of entry 1 (VMAPFTMTI; listed as Homo sapiens) [compound 1]
“++++” (≥75% = ++++)

# query: Peptide exchange (MHC class I binding score) of entry 226 (AVLGPLGLQEV; listed as Homo sapiens) [compound 226]
“+++” (≥50 = +++)

# query: Peptide exchange (MHC class I binding score) of entry 264 (VMQDPEFLQSV; listed as Homo sapiens) [compound 264]
“++++” (≥75% = ++++)

# query: Peptide exchange (MHC class I binding score) of entry 185 (ALFPALRPGGFQA; listed as Homo sapiens) [compound 185]
“+++” (≥50 = +++)

# query: Peptide exchange (MHC class I binding score) of entry 160 (RLLAKIICL; listed as Homo sapiens) [compound 160]
“++” (≥20% = ++)

# query: Peptide exchange (MHC class I binding score) of entry 133 (ALLEMDARL; listed as Homo sapiens) [compound 133]
“+++” (≥50 = +++)

# query: Peptide exchange (MHC class I binding score) of entry 88 (RLIDRIKTV; listed as Homo sapiens) [compound 88]
“++” (≥20% = ++)

# query: Peptide exchange (MHC class I binding score) of entry 86 (RLAAFYSQV; listed as Homo sapiens) [compound 86]
“+++” (≥50 = +++)
